Test System: Melanocortin receptor 3 (Homo sapiens)
Sequence (P41968 whole entry): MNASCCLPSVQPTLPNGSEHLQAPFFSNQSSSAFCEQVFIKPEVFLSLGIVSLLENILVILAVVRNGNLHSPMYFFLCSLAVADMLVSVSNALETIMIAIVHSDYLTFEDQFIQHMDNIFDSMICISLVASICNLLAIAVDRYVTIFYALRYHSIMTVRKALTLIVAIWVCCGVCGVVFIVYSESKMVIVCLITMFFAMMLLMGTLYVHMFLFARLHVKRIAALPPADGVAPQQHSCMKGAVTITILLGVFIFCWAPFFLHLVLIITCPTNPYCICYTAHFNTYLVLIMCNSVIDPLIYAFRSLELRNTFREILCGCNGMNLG
Protocol Description: Agonist activity at human MC3R expressed in HEK2936E cells assessed as cAMP production in presence of IBMX by time resolved fluorescence assay
Type: functional, cell-based
*1 amine or outer side, *2 acyl side, *3 side chain or, on linkers, in order; H or OH if unused. Where a SMILES comes first, the peptide text is derived from it. Bridges are numbered along the chain shown (N, C = ends). [ ]: non-standard residue; d: D form. X4 = C#CCCCCN1C(=O)C([*:1])=C([*:2])C1=O; mXylylene = c1cc(C[*:1])cc(C[*:2])c1; pXylylene = c1cc(C[*:2])ccc1C[*:1]; NMeR = CN[C@@H](CCCNC(=N)N)C(=O)O; CH2COCH2 = O=C(C[*:1])C[*:2]; Nle = CCCC[C@H](N)C(=O)O
Assay Metric: EC50 (nM)
One number for each entry, in nM.

Examples from the recorded data:
Compound	Test System	Assay Metric	Numeric Readout
CCCC[C@@H]1NC(=O)[C@@H]2CSCc3cccc(c3)CSC[C@H](NC(=O)[C@H](CCCNC(=N)N)NC(=O)[C@H](CC(=O)O)NC(=O)[C@H](Cc3c[nH]c4ccccc34)NC(=O)[C@H](CCCNC(=N)N)NC(=O)[C@H](Cc3ccccc3)NC(=O)[C@H](Cc3cnc[nH]3)NC(=O)CNC1=O)C(=O)N[C@@H](Cc1cnc[nH]1)C(=O)N[C@@H](Cc1ccccc1)C(=O)N[C@@H](CCCNC(=N)N)C(=O)N[C@@H](Cc1c[nH]c3ccccc13)C(=O)N[C@@H](CCCNC(=N)N)C(=O)N2 (cyclo(CHFRWRC[Nle]GHFRWDR); linker 1-7 via mXylylene)	Melanocortin receptor 3 (Homo sapiens)	EC50	0.309
CCCC[C@@H]1NC(=O)[C@@H]2CSCC(=O)CSC[C@H](NC(=O)[C@H](CCCNC(=N)N)NC(=O)[C@H](CC(=O)O)NC(=O)[C@H](Cc3c[nH]c4ccccc34)NC(=O)[C@H](CCCNC(=N)N)NC(=O)[C@H](Cc3ccccc3)NC(=O)[C@H](Cc3cnc[nH]3)NC(=O)CNC1=O)C(=O)N[C@@H](Cc1cnc[nH]1)C(=O)N[C@@H](Cc1ccccc1)C(=O)N[C@@H](CCCNC(=N)N)C(=O)N[C@@H](Cc1c[nH]c3ccccc13)C(=O)N[C@@H](CCCNC(=N)N)C(=O)N2 (cyclo(CHFRWRC[Nle]GHFRWDR); linker 1-7 via CH2COCH2)	Melanocortin receptor 3 (Homo sapiens)	EC50	0.692

Give one value of EC50 per listed compound.
1. CC[C@H](C)[C@@H]1NC(=O)[C@@H]2CCCN2C(=O)[C@H](Cc2c[nH]c3ccccc23)NC(=O)[C@H](CCCNC(=N)N)N(C)C(=O)[C@H](Cc2ccccc2)NC(=O)[C@H](Cc2cnc[nH]2)NC(=O)[C@H]([C@@H](C)O)NC(=O)[C@@H](NC(C)=O)CSCc2ccc(cc2)CSC[C@@H](C(N)=O)NC1=O (Ac-CTHF[NMeR]WPIC-NH2; linker 1-9 via pXylylene)
2. CC[C@H](C)[C@@H]1NC(=O)[C@@H]2CCCN2C(=O)[C@H](Cc2c[nH]c3ccccc23)NC(=O)[C@H](CCCNC(=N)N)N(C)C(=O)[C@H](Cc2ccccc2)NC(=O)[C@H](Cc2cnc[nH]2)NC(=O)[C@H]([C@@H](C)O)NC(=O)[C@@H](NC(C)=O)CSSC[C@@H](C(N)=O)NC1=O (Ac-CTHF[NMeR]WPIC-NH2; disulfide 1-9)
3. C#CCCCCN1C(=O)C2=C(SC[C@@H]3NC(=O)[C@H](CCCNC(=N)N)NC(=O)[C@H](CC(=O)O)NC(=O)[C@H](Cc4c[nH]c5ccccc45)NC(=O)[C@H](CCCNC(=N)N)NC(=O)[C@H](Cc4ccccc4)NC(=O)[C@H](Cc4cnc[nH]4)NC(=O)CNC(=O)[C@H](CCCC)NC(=O)[C@H](CS2)NC(=O)[C@H](CCCNC(=N)N)NC(=O)[C@H](Cc2c[nH]c4ccccc24)NC(=O)[C@H](CCCNC(=N)N)NC(=O)[C@H](Cc2ccccc2)NC(=O)[C@H](Cc2cnc[nH]2)NC3=O)C1=O (cyclo(CHFRWRC[Nle]GHFRWDR); linker 1-7 via X4)

stdout:
1. 162
2. 39.8
3. 0.158

Source of measurements: ChEMBL document CHEMBL5104192
